Target: Calmodulin-1 (Homo sapiens) (UniProt P0DP23)
Assay: small molecules binding Ca-loaded calmodulin-1 – biochemical, small-molecule microarray, Cy5-labelled CALM1, plus calcium, artefact control for SMM control-protein annotation, profiling panel (AID 1112);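 note: score merges spot fluorescence with signal to noise from triplicate slides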
Conditions: Cy5-CALM1 binding fluorescence, higher = more signal
Listed here are compounds together with their documented composite z-score.

Prompt line: For CN1C(=O)C2C=CC(C(O)c3ccc(-c4ccccc4)s3)N(NC(=O)OC(C)(C)C)C2C1=O (stereo not given) , what is its reported composite z-score?
Response line: 0.902

Prompt line: For COc1ccc([Si](C)(C)[C@@H]2[C@@H](CC(=O)N3CCC[C@H]3CO)O[C@]3(C(=O)N(Cc4cccc(N5CCCCC5=O)c4)c4ccccc43)[C@H]2C)cc1 , what is its reported composite z-score?
Response line: 0.0654

Prompt line: For C=CCOC(=O)[C@@H]1[C@H]2C(=O)O[C@H](c3ccccc3)[C@H](c3ccccc3)N2[C@H](c2ccc(OCCOC(=O)[C@H]3C[C@H]4C(=O)N5CCC[C@H]5C(=O)N4[C@H]3c3cccc(OCCO)c3)cc2)[C@@]12C(=O)Nc1ccc(I)cc12 , what is its reported composite z-score?
Response line: 0.0231

Prompt line: For N#Cc1ccc(-c2cccc(=O)o2)cc1 , what is its reported composite z-score?
Response line: -0.564

Prompt line: For COC(=O)[C@@]1(Cc2ccccc2)[C@H]2c3cc(C(=O)N(C)C)n(Cc4ccc(C(F)(F)F)nc4)c3C[C@H]2CN1C(=O)c1ccccc1 , what is its reported composite z-score?
Response line: 1.14

Prompt line: For CC(C)=CCCC(C)=CC(O)C1C=CC2C(=O)NC(=O)C2N1Nc1ccc(Cl)cc1Cl (stereo not given) , what is its reported composite z-score?
Response line: 0.254

Prompt line: For O=C1C2C=CC(C(O)C3CCCCC3)N(n3cnnc3)C2C(=O)N1Cc1ccccc1 (stereo not given) , what is its reported composite z-score?
Response line: -0.195

Prompt line: For COCCCNC(=O)[C@@]1(CCS(=O)(=O)c2ccccc2)COC(c2ccc(OCCCO)cc2)=N1 , what is its reported composite z-score?
Response line: 1.26

Prompt line: For O=C1O[C@@H](c2ccccc2)[C@@H](c2ccccc2)N2[C@@H](c3ccc(OCCO)cc3)[C@]3(C(=O)Nc4ccc(C#CC5(O)CCCCCC5)cc43)[C@@H](C(=O)O)[C@H]12 , what is its reported composite z-score?
Response line: 1.03

Prompt line: For CN(C)CCCNC(=O)[C@@]1(Cc2ccccc2I)c2ccccc2C(=O)N(C2CCCCC2)[C@H]1c1ccc(CO)cc1 , what is its reported composite z-score?
Response line: 1.2

Prompt line: For CN1C(=O)C2C(C1=O)C1C=C(c3ccc(CO)cc3)C2C(C2CC2)N1C (stereo not given) , what is its reported composite z-score?
Response line: 0.103

Prompt line: For COc1ccc(C(O)C2C=CC3C(=O)N(c4ccccc4)C(=O)C3N2Nc2ccc([N+](=O)[O-])cc2)c2ccccc12 (stereo not given) , what is its reported composite z-score?
Response line: 0.554

Prompt line: For O=C1O[C@H](Cc2ccccc2)[C@@H]2[C@H]3C=CCCC=C3CN2[C@H]1Cc1ccc(O)cc1 , what is its reported composite z-score?
Response line: -0.593

Prompt line: For CCCCC(=C=CC[C@H](O)c1ccc(CO)o1)CCO , what is its reported composite z-score?
Response line: -0.363

Prompt line: For COC(=O)C(CC#Cc1ccc2c(c1)[C@]1(C(=O)N2)[C@H](c2ccc(OCCO)cc2)N2[C@H](c3ccccc3)[C@H](c3ccccc3)OC(=O)[C@H]2[C@@H]1C(=O)N1CCCCCCC1)C(=O)OC , what is its reported composite z-score?
Response line: 1.29

====

Target: NADPH oxidase 4 (Homo sapiens) (UniProt Q9NPH5)
Sequence (Q9NPH5 whole entry, looked up): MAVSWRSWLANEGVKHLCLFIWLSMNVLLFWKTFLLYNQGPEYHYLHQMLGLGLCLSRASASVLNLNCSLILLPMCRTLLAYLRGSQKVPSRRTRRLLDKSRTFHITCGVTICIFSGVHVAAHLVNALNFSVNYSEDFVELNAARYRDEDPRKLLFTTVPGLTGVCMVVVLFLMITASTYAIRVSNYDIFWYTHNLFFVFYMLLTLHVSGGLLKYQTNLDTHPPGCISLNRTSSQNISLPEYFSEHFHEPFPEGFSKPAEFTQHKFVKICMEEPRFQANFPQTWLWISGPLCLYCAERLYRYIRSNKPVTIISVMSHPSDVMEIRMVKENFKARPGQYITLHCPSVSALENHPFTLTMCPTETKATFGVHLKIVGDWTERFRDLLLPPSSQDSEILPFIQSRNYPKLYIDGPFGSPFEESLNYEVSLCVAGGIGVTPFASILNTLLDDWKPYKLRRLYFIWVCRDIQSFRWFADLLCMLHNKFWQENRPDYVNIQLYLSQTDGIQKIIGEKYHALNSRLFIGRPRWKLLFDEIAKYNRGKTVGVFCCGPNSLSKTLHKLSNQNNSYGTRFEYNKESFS
Assay: compounds shifting NOX4 Amplex Red fluorescence – cell-based, HEK293-NOX4, tetracycline-induced, NOX inhibitor project, primary screen (AID 1160)
Conditions: HEK293-NOX4, Amplex Red H2O2 fluorescence, 45 min; higher = more signal, called active from +8 up or from −8 down
readout-kind: z-score
Please give only the number in your answer, with no unit.

COC(=O)C1=CC(CCCO)=CC(c2cccs2)N(Cc2cc3c(cc2Br)OCO3)C=C1C(=O)OC (configuration not stated) = -1.26
O=C1[C@H]2C=C(I)[C@H](C[C@@H]2OCCCCCCO)[C@@]12CO2 = 0.645
COc1ccc([Si](C)(C)[C@@H]2[C@@H](CC(=O)N(CCO)Cc3ccccc3)O[C@]3(C(=O)N(Cc4ccc(I)cc4)c4ccccc43)[C@H]2C)cc1 = 1.6
O=C1O[C@H](Cc2ccccc2)[C@@H]2[C@H]3C=CCCC=C3CN2[C@H]1Cc1ccc(O)cc1 = -1.58
CC(C)NC(=O)[C@@]1(C)c2ccccc2C(=O)N(Cc2ccccc2)[C@H]1c1ccc(CO)cc1 = 0.485

Prompt line: For CC(C)=C1C(=O)C(c2ccccc2)=C2CN3C(=O)N(CCc4ccccc4)C(=O)[C@]3(C)[C@H]21 , what is its reported z-score?
Response line: -1.55

Prompt line: For C=CCOC(=O)[C@H]1[C@@H]2C(=O)O[C@@H](c3ccccc3)[C@@H](c3ccccc3)N2[C@@H](c2ccc(OCCOC(=O)[C@H]3C[C@H]4C(=O)N[C@@H](CC(C)C)C(=O)N4[C@H]3c3ccc(O)cc3)cc2)[C@]12C(=O)Nc1ccccc12 , what is its reported z-score?
Response line: 0.776

====

Assay: small molecules captured by biotinylated probe aFSTL3 – biochemical, small-molecule microarray, fluorescence 635/667, stem cell growth factor project, primary screen (AID 1064);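 note: measures binding of the biotinylated anti-FSTL3 antibody to printed compounds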
Conditions: higher = more signal
# label = yes if composite z-score >= -0.1 else no

CC1CC/C=C\[C@H]2OC34C=CCN(c5ccc(Cl)cc5)C(=O)[C@H]3N(CCCCCCO)C(=O)[C@]4(C)C2C(=O)O1 (some centres not stated) = no
C=CCC(OC(C)=O)[C@@H]1[C@@H](N(Cc2ccc(-c3ccccc3)cc2)C(=O)c2cccc3ccccc23)c2cc(OCCCO)ccc2N1C(=O)Cc1ccc(OC)cc1 (some centres not stated) = yes
O=C1O[C@H](Cc2ccccc2)[C@@H]2[C@H]3C=CCCC=C3CN2[C@H]1Cc1ccc(O)cc1 = no
[N-]=[N+]=Nc1ccccc1C[C@@]1(C(=O)NCc2ccccc2)N=C(c2ccc(OCCCO)cc2)O[C@@H]1c1ccccc1N=[N+]=[N-] = yes

Prompt line: Record COCC(=C=CC[C@H](O)c1ccccc1OCCO)C[C@H](O)COCc1ccccc1 ; criterion: composite z-score no lower than -0.1. Met?
Response line: no

Prompt line: Record CN(C)CCCC[C@@H]1NC(=O)[C@@H]2C[C@H](C(=O)NCCCCCN)[C@H](c3cccc(OCCO)c3)N2C1=O ; criterion: composite z-score no lower than -0.1. Met?
Response line: no

Prompt line: Record CN(C)CCCNC(=O)[C@@]1(C)c2ccccc2C(=O)N(Cc2ccc(OC(F)(F)F)cc2)[C@H]1c1ccc(CO)cc1 ; criterion: composite z-score no lower than -0.1. Met?
Response line: yes

====

Target: Homeobox protein Hox-A13 (Mus musculus)
Assay: disruptors of Hoxa13 oligonucleotide interaction – biochemical, fluorescence polarization, labeled oligonucleotide, primary screen (AID 1185)
Settings: Hoxa13:DNA binding, 15 min, higher = more signal, called active from +8 up or from −8 down
# label = satisfied if z-score >= -3 else not satisfied

Below, 5 compounds whose answers are already recorded.
COC(=O)C1=CC(CCCO)=CC(c2cccs2)N(Cc2cc3c(cc2Br)OCO3)C=C1C(=O)OC (configuration not stated) = not satisfied
C=CCC(OC(C)=O)[C@@H]1[C@@H](N(Cc2ccc(-c3cccc(C(F)(F)F)c3)o2)C(=O)c2ccc(-c3ccccc3)cc2)c2cc(OCCCO)ccc2N1C(=O)c1ccc2ccccc2c1 (some centres not stated) = satisfied
Cc1ccc(S[C@]2(C(=O)NCC(F)(F)F)CC(=O)N(Cc3ccccc3C(F)(F)F)[C@@H]2c2ccc(CO)cc2)cc1 = satisfied
CCCCN1CC=CC23O[C@@H]4/C=C\CCCOC(=O)C4[C@H]2C(=O)N(C(CO)C(C)C)[C@@H]3C1=O (some centres not stated) = not satisfied
COc1cc(CO)cc(I)c1O[C@H]1C=C(C(=O)NCCO)C[C@@H]2O[C@H]12 = not satisfied

Now look at this entry.
Prompt line: Record COC(=O)[C@@]1(Cc2ccc(F)cc2)[C@H]2c3cc(C(=O)N4CCCC4)n(Cc4ccccn4)c3C[C@H]2CN1C(=O)c1ccccc1 ; criterion: z-score no lower than -3. Met?
Response line: not satisfied

====

Assay: change in splice reporter luminescence, either direction, cell-based, HEK293, spliceosome inhibition project, primary screen (AID 1101);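 note: HEK293 cells carrying a splicing-competent luciferase reporter gene; test concentration not given here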
Settings: HEK293 splicing luciferase reporter, 24 h, higher = more signal, called active from +8 up or from −8 down
Calls of active or inactive are those of the source.
Listed here are compounds together with their documented z-score.

[N-]=[N+]=NCc1ccccc1[C@@H]1OC(c2ccc(OCCCO)cc2)=N[C@]1(Cc1ccccc1N=[N+]=[N-])C(=O)NCC(O)CO (stereo partly specified) = 1.25 (inactive)
C=CCNC(=O)[C@H]1[C@@H]2C(=O)O[C@@H](c3ccccc3)[C@@H](c3ccccc3)N2[C@@H](c2ccc(OCCO)cc2)[C@]12C(=O)Nc1ccccc12 = -0.152 (inactive)
CC(C)(C)N1CC=CC23O[C@@H]4C=CCCOC(=O)C4[C@H]2C(=O)N(CCCCCCO)[C@@H]3C1=O (stereo partly specified) = 0.416 (inactive)
C[C@@H]1ON(c2ccc(I)cc2)[C@H](c2cccc(NC(=O)OCC3c4ccccc4-c4ccccc43)c2)[C@H]1C(=O)N1C(=O)OC[C@H]1Cc1ccccc1 = -0.271 (inactive)
COc1ccc([Si](C)(C)[C@H]2[C@H](CC(=O)N3CCC[C@H]3CO)O[C@@]3(C(=O)N(Cc4ccc(N5CCCCC5=O)cc4)c4ccccc43)[C@@H]2C)cc1 = -1.16 (inactive)

Read the next record carefully.
Prompt line: For CCN(CC)c1ccc(N2CC=CC34O[C@@H]5C=CCCOC(=O)C5[C@H]3C(=O)N(C(C)CO)[C@@H]4C2=O)cc1 (stereo partly specified) , what is its reported z-score?
Response line: -0.0428 (inactive)
